- target or test system: IMP-1 (Serratia marcescens)
- Sequence (P52699 whole entry, looked up): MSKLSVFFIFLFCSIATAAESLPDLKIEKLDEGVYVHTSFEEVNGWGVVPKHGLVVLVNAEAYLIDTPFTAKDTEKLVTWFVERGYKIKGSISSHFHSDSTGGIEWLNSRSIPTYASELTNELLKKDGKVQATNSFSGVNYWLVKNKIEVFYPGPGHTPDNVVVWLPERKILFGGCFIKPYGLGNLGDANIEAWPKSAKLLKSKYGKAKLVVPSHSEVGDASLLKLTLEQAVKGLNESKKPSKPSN
- protocol description: biochemical
- Format: biochemical
- setup conditions: fluorescence assay with CCF2-FA substrate; read-out: IMP-1 IC50
Examples of compounds with documented IC50 follow.

- compound: "NS(=O)(=O)c1c(C(F)(F)F)ccc(-c2ccc(C3CN(CC4CNC4)C3)cc2)c1-c1nnn[nH]1"
  IC50, nM: 5.14
- compound: "NS(=O)(=O)c1nccc(-c2ccccc2)c1-c1nn[nH]n1"
  IC50, nM: 373
- compound: "NCCC1CCN(c2ccc(C(F)(F)F)c(S(N)(=O)=O)c2-c2nnn[nH]2)CC1"
  IC50, nM: 22.1
- compound: "N#CC1(c2ccc(-c3cccc(S(N)(=O)=O)c3-c3nnn[nH]3)cc2)CCOCC1"
  IC50, nM: 3.6
- compound: "NS(=O)(=O)c1cccc(-c2ncccn2)c1-c1nn[nH]n1"
  IC50, nM: 2570
- compound: "CC(C)Cc1cccc(S(N)(=O)=O)c1-c1nn[nH]n1"
  IC50, nM: 260
- compound: "NS(=O)(=O)c1cccc(-c2cnc(N3CCCCC3)nc2)c1-c1nnn[nH]1"
  IC50, nM: 63.1
- compound: "NS(=O)(=O)c1nccc(-c2ccc(C3CCOCC3)cc2)c1-c1nnn[nH]1"
  IC50, nM: 28.9
- compound: "NS(=O)(=O)c1cccc(CCc2ccccc2)c1-c1nnn[nH]1"
  IC50, nM: 10.8
- compound: "NS(=O)(=O)c1c(C(F)(F)F)ccc(C2CCN(C3CCNCC3)CC2)c1-c1nnn[nH]1"
  IC50, nM: 232
- compound: "NS(=O)(=O)c1nccc(-c2ccc(CO)nc2)c1-c1nnn[nH]1"
  IC50, nM: 2630
- compound: "NS(=O)(=O)c1nccc(-c2ccc(C(=O)NC3CCOCC3)cc2)c1-c1nnn[nH]1"
  IC50, nM: 564
- compound: "Cc1ccc(-c2cccc(S(N)(=O)=O)c2-c2nnn[nH]2)cc1"
  IC50, nM: 64.8
- compound: "NC1(C2CCN(c3ccc(C(F)(F)F)c(S(N)(=O)=O)c3-c3nnn[nH]3)C2)CC1 (centres unmarked)"
  IC50, nM: 120
- compound: "NC1CN(C2CCN(c3ccc(C(F)(F)F)c(S(N)(=O)=O)c3-c3nnn[nH]3)CC2)C1"
  IC50, nM: 45.8
- compound: "NS(=O)(=O)c1cccc(-c2csc(CN3CCOCC3)c2)c1-c1nn[nH]n1"
  IC50, nM: 311
- compound: "CS(=O)(=O)c1ccc(-c2cccc(S(N)(=O)=O)c2-c2nn[nH]n2)cn1"
  IC50, nM: 227
